- ASSAY_PROTOCOL: p53 small molecule agonists, cell-based qHTS assay (AID 1963582)
- SETUP_CONDITIONS: HCT-116 p53RE-bla reporter, beta-lactamase FRET ratio, 16 h; series mostly up to 66 µM
Records with an inconclusive call do not appear. Activity calls are given as the source filed them. Calls follow the shape of the dose curve; as a rule, active = well fitted activation curve with a large enough effect in the signal ratio in the repeat runs (not every such curve was filed as active); inconclusive = weak or mixed curves; inactive = flat fitted curve, though single readings scatter; the % refers to the signal ratio.
REPORTED_METRIC: outcome

[[record]]
compound = "Cc1ncc([N+](=O)[O-])n1CCO"
measurement = "inactive"

[[record]]
compound = "C[N+](C)(C)CCCCCC[N+](C)(C)C"
measurement = "inactive"

[[record]]
compound = "CCCCC(CC)COC(=O)CCCCC(=O)OCC(CC)CCCC (configuration not stated)"
measurement = "inactive"

[[record]]
compound = "O=C(O)c1ccc2c(c1)C(=O)OC2=O"
measurement = "inactive"

[[record]]
compound = "O=C1O[C@H](CO)[C@@H](O)[C@H](O)[C@H]1O"
measurement = "inactive"

[[record]]
compound = "CCCCCC1C(=O)CCC1CC(=O)OC (configuration not stated)"
measurement = "inactive"

[[record]]
compound = "CCCC(C)=O"
measurement = "inactive"

[[record]]
compound = "OC[C@@H](O)[C@@H](O)[C@H](O)[C@@H](O)CO"
measurement = "inactive"


Entry under test: `C[C@H]1C[C@@H]2[C@H]([C@@H](O)C[C@@]3(C)[C@H]2CC[C@]3(O)C(=O)CO)[C@@]2(C)C=CC(=O)C=C12` . Its outcome was inactive

Entry under test: `CC(=O)Nc1nnc(S(N)(=O)=O)s1` . Its outcome was inactive

Entry under test: `OCCOCCOCCOCCO` . Its outcome was inactive

Entry under test: `C[Si]1(C)O[Si](C)(C)O[Si](C)(C)O[Si](C)(C)O1` . Its outcome was inactive

Entry under test: `Cc1cccc(C(=O)O)c1` . Its outcome was inactive

Entry under test: `CCCCOCCOC(=O)c1ccccc1C(=O)OCCOCCCC` . Its outcome was inactive

Entry under test: `OCCCc1ccccc1` . Its outcome was inactive

---

- ASSAY_PROTOCOL: p53 small molecule agonists, cell-based qHTS assay with rat liver microsomes (AID 1963578)
- SETUP_CONDITIONS: HCT-116 p53RE-bla, beta-lactamase ratio, 16 h; series mostly up to 66 µM
Records with an inconclusive call do not appear. The source made the active and inactive calls. Calls follow the shape of the full dose curve.
The reply should name one outcome from YES = active, NO = inactive

Ask: Hello, I am checking results. What call was entered for `C=CC[N+](C)(C)CC=C` ?
Result: NO

Ask: Hello, I am checking results. What call was entered for `CCCc1c(OCCCCc2nn[nH]n2)ccc(C(C)=O)c1O` ?
Result: NO

Ask: Hello, I am checking results. What call was entered for `C=CN1CCCC1=O` ?
Result: NO

Ask: Hello, I am checking results. What call was entered for `C=CC(=O)NC(C)(C)CS(=O)(=O)O` ?
Result: NO

Ask: Hello, I am checking results. What call was entered for `C=C(C)CC(C)(C)C` ?
Result: NO

Ask: Hello, I am checking results. What call was entered for `[Na+]` ?
Result: NO

Ask: Hello, I am checking results. What call was entered for `Nc1cccc(C(F)(F)F)c1` ?
Result: NO

Ask: Hello, I am checking results. What call was entered for `Cc1cc(CC(=O)O)n(C)c1C(=O)c1ccc(Cl)cc1` ?
Result: NO

Ask: Hello, I am checking results. What call was entered for `CC(=O)C(=O)O` ?
Result: NO

Ask: Hello, I am checking results. What call was entered for `CCCN(CCC)C(=O)SCC` ?
Result: NO

Ask: Hello, I am checking results. What call was entered for `COc1cc(C=O)ccc1O` ?
Result: NO

Ask: Hello, I am checking results. What call was entered for CCc1cccc2c3c([nH]c12)C(CC)(CC(=O)O)OCC3 (configuration not stated) ?
Result: NO

Ask: Hello, I am checking results. What call was entered for `CN(C)Cc1cc(CN(C)C)c(O)c(CN(C)C)c1` ?
Result: NO

Ask: Hello, I am checking results. What call was entered for `CCCCOCCOC(=O)c1ccccc1C(=O)OCCOCCCC` ?
Result: NO

Ask: Hello, I am checking results. What call was entered for `CC(=O)c1ccccn1` ?
Result: NO

Ask: Hello, I am checking results. What call was entered for `c1ccc2c(c1)c1cccc3ccc4cccc2c4c31` ?
Result: YES

Ask: Hello, I am checking results. What call was entered for `CC(=O)CC(C)(C)O` ?
Result: NO

Ask: Hello, I am checking results. What call was entered for `COCCOC(=O)c1ccccc1C(=O)OCCOC` ?
Result: NO

Ask: Hello, I am checking results. What call was entered for `CCOC(=O)C(C#N)=C(c1ccccc1)c1ccccc1` ?
Result: NO

Ask: Hello, I am checking results. What call was entered for CCCCCCC(C)O (configuration not stated) ?
Result: NO

Ask: Hello, I am checking results. What call was entered for `CCCc1cc(=O)[nH]c(=S)[nH]1` ?
Result: NO

Ask: Hello, I am checking results. What call was entered for CC(O)CO (configuration not stated) ?
Result: NO

Ask: Hello, I am checking results. What call was entered for `Nc1ccn([C@H]2CC[C@@H](CO)O2)c(=O)n1` ?
Result: NO

Ask: Hello, I am checking results. What call was entered for `O=c1c(O)c(-c2ccc(O)c(O)c2)oc2cc(O)cc(O)c12` ?
Result: NO

Ask: Hello, I am checking results. What call was entered for `CC(C)(CO)CO` ?
Result: NO

Ask: Hello, I am checking results. What call was entered for `CCCCCCCCCCN` ?
Result: NO

Ask: Hello, I am checking results. What call was entered for `NCCS(=O)(=O)O` ?
Result: NO

Ask: Hello, I am checking results. What call was entered for `CCCCCCCCCCCCCO` ?
Result: NO

Ask: Hello, I am checking results. What call was entered for `OB(O)O` ?
Result: NO

Ask: Hello, I am checking results. What call was entered for `O=S(=O)(O)c1ccc2ccccc2c1` ?
Result: NO

Ask: Hello, I am checking results. What call was entered for `Brc1cc(Oc2cc(Br)c(Br)c(Br)c2Br)c(Br)c(Br)c1Br` ?
Result: NO

Ask: Hello, I am checking results. What call was entered for `O=Cc1ccccc1O` ?
Result: NO

---

- ASSAY_PROTOCOL: p53 small molecule agonists, cell-based qHTS assay with rat liver microsomes (AID 1963578)
- SETUP_CONDITIONS: HCT-116 p53RE-bla, beta-lactamase ratio, 16 h; series mostly up to 66 µM
Records with an inconclusive call do not appear. Active and inactive are the calls of the source. The call rests on the fitted dose curve.
REPORTED_METRIC: outcome

[[record]]
compound = "C=CC(=O)OCCC(=O)O"
reported_metric = "outcome"
measurement = "inactive"

[[record]]
compound = "Nc1cccc(N)c1"
reported_metric = "outcome"
measurement = "inactive"

[[record]]
compound = "C=CC(C)(CCC=C(C)C)OC(C)=O (stereo unspecified)"
reported_metric = "outcome"
measurement = "inactive"

[[record]]
compound = "C1N2CN3CN1CN(C2)C3"
reported_metric = "outcome"
measurement = "inactive"


Entry under test: `Oc1ccc2ccccc2c1N=Nc1ccccc1` . Its outcome was inactive

Entry under test: `CCN=c1cc2oc3cc(NCC)c(C)cc3c(-c3ccccc3C(=O)OCC)c-2cc1C` . Its outcome was inactive

Entry under test: `OCCc1ccccc1` . Its outcome was inactive

Entry under test: OCCOCCN1CCN(C(c2ccccc2)c2ccc(Cl)cc2)CC1 (stereo unspecified) . Its outcome was inactive

---

- MEASURED_ON: D(2) dopamine receptor (Homo sapiens) (UniProt P14416)
- Sequence (P14416 whole entry, looked up): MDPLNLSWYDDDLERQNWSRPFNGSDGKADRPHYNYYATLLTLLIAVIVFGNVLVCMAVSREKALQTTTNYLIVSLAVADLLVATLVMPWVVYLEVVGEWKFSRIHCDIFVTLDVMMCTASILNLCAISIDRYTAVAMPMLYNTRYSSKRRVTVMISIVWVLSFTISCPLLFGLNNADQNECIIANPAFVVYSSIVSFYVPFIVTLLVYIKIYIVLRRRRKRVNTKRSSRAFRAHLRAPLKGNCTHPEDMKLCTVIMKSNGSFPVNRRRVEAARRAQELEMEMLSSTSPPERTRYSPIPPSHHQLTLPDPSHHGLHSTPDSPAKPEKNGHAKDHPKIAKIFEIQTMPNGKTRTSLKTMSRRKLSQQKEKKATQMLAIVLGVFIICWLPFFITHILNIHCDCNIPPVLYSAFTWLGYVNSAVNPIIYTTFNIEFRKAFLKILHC
- ASSAY_PROTOCOL: Dopamine D2 receptor (DRD2) small molecule agonists, cell-based qHTS assay (AID 1963594); also: nearly all actives have a fitted effect of over 35% in size
- SETUP_CONDITIONS: HEK293-DRD2 cAMP HTRF, agonist mode, 30 min; series mostly up to 92.4 µM
Inconclusive results are not listed. Active and inactive are the calls of the source. Calls come from the whole dose curve.
REPORTED_METRIC: outcome

Previously resolved entries follow.
[[record]]
compound = "O=[N+]([O-])c1cc(C(F)(F)F)ccc1Cl"
reported_metric = "outcome"
measurement = "inactive"

[[record]]
compound = "CC1CCC2CC1C2(C)C (stereo unspecified)"
reported_metric = "outcome"
measurement = "inactive"

[[record]]
compound = "C[C@H]1C[C@H]2[C@@H]3CCC4=CC(=O)C=C[C@]4(C)[C@@]3(F)[C@@H](O)C[C@]2(C)[C@@]1(O)C(=O)CO"
reported_metric = "outcome"
measurement = "inactive"

[[record]]
compound = "Oc1ccc(Cl)cc1Cc1cc(Cl)ccc1O"
reported_metric = "outcome"
measurement = "inactive"

[[record]]
compound = "NCCN"
reported_metric = "outcome"
measurement = "inactive"


Entry under test: `Cc1ccc(C(=O)O)o1` . Its outcome was inactive

Entry under test: `O=C(O)CCCC(=O)O` . Its outcome was inactive

Entry under test: `CCCCNC(N)=O` . Its outcome was inactive

Entry under test: C=C1C2CCC(C2)C1(C)C (stereo unspecified) . Its outcome was inactive

Entry under test: `C=CC(=O)OCCCCCCCC(C)C` . Its outcome was inactive

Entry under test: `CC[C@H](C)C(=O)O[C@H]1C[C@@H](C)C=C2C=C[C@H](C)[C@H](CC[C@@H]3C[C@@H](O)CC(=O)O3)[C@H]21` . Its outcome was inactive

Entry under test: `O=C1CCCCCN1` . Its outcome was inactive

Entry under test: `O=C1O[C@H]([C@H](O)CO)C(O)=C1O` . Its outcome was inactive

Entry under test: `CC(=O)Oc1ccc(C(c2ccc(OC(C)=O)cc2)c2ccccn2)cc1` . Its outcome was inactive
